Biological target: Melanin-concentrating hormone receptor 1 (Homo sapiens, UniProt Q99705)
Sequence (Q99705 whole entry): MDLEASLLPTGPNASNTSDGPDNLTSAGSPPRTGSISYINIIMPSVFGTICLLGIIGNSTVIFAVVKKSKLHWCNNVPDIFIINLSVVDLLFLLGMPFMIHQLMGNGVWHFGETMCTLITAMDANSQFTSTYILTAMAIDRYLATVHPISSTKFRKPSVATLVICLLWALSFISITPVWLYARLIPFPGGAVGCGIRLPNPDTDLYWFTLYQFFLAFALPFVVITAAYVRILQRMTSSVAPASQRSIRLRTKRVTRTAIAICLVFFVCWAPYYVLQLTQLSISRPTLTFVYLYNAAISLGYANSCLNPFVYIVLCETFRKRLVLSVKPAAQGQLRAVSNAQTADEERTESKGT
Assay: Inhibitory activity against human CA-MCH-R1 (Melanin-concentrating hormone receptor 1) by using [125I](Phe13,Tyr19)MCH as radioligand expressed in HEK293 cells
Classification by IC50 follows these ranges: lo = under 0.009 µM, med = from 0.009 µM up to 0.2 µM, hi = 0.2 µM and over

1) CN(C)c1nc(N[C@H]2CC[C@@H](NC(=O)c3ccc(F)c(F)c3F)CC2)nc2ccccc12 | med
2) CN(C)c1nc(NC2CCC(CNCc3ccc(Br)cc3OC(F)(F)F)CC2)nc2ccccc12 (cis isomer) | lo
3) CN(Cc1ccc(Br)cc1OC(F)(F)F)CC1CCC(CNc2nc(N(C)C)c3ccccc3n2)CC1 (stereo unspecified) | hi
4) CN(C)c1nc(NCC2CCC(CN(C)S(=O)(=O)c3ccc(Br)cc3OC(F)(F)F)CC2)nc2ccccc12 (stereo unspecified) | hi
5) CN(C)c1nc(NC2CCC(NC(=O)c3ccc(Br)cc3OC(F)(F)F)CC2)nc2ccccc12 (cis isomer) | med

Bin this entry: CN(C)c1nc(N[C@H]2CC[C@@H](CNS(=O)(=O)c3ccc(Br)cc3OC(F)(F)F)CC2)nc2ccccc12
med

Bin this entry: CN(C)c1nc(N[C@H]2CC[C@@H](NC(=O)c3cccc(Br)c3)CC2)nc2ccccc12
lo

Bin this entry: CN(C)c1nc(N[C@H]2CC[C@@H](NC(=O)c3cccc(C#N)c3)CC2)nc2ccccc12
med

Provenance of the data: ChEMBL document CHEMBL1142793
